# subject of test: human NOD2 (Homo sapiens)
# Construct: host or cells: HEK293
# test: human NOD2 specific reporter gene assay (NF-κB induction)
# Format: cell-based
# assay setup: human NOD2 specific reporter gene assay; arithmetic mean of quadruplicate samples; NA* indicates inactive under the tested conditions; read-out: hNOD2 Agonistic Activity (μM), EC50
readout: EC50 (µM)

Worked set:
CCCCCc1nc2ccccc2n1-c1csc(C(=O)NC)c1 [Compound 11c] : 7.02
CCCCCCCCCCCc1nc2ccccc2n1-c1csc(C(N)=O)c1 [Compound 7i] : 5.81
CC(C)CCc1nc2ccccc2n1-c1csc(C(N)=O)c1 [Compound 7m] : 2.91
CCCCCCCCCc1nc2ccccc2n1-c1csc(C(N)=O)c1 [Compound 7h] : 3.06
CCCCCc1nc2ccccc2n1-c1csc(C(=O)NO)c1 [Compound 11b] : 1.84
CCCCCc1nc2ccccc2n1-c1csc(C(N)=O)n1 [Compound 14] : 7.39

P. CCCCCCCCc1nc2ccccc2n1-c1csc(C(N)=O)c1 [Compound 7g]
Q. CCc1nc2ccccc2n1-c1csc(C(N)=O)c1 [Compound 7b]
R. CCCCCc1nc2ccccc2n1-c1csc(C(=N)N)c1 [Compound 13b]
Task: Order the records by EC50, with each subsequent value no larger than the one before. In plain terms: list the labels in the order you were asked to.
Result: Q, R, P
(Q: 13.2 µM, R: 6.57 µM, P: 2.2 µM)

----------
# subject of test: human NOD2 (Homo sapiens, UniProt Q9HC29)
# Construct: host or cells: HEK293
# Sequence (Q9HC29 whole entry): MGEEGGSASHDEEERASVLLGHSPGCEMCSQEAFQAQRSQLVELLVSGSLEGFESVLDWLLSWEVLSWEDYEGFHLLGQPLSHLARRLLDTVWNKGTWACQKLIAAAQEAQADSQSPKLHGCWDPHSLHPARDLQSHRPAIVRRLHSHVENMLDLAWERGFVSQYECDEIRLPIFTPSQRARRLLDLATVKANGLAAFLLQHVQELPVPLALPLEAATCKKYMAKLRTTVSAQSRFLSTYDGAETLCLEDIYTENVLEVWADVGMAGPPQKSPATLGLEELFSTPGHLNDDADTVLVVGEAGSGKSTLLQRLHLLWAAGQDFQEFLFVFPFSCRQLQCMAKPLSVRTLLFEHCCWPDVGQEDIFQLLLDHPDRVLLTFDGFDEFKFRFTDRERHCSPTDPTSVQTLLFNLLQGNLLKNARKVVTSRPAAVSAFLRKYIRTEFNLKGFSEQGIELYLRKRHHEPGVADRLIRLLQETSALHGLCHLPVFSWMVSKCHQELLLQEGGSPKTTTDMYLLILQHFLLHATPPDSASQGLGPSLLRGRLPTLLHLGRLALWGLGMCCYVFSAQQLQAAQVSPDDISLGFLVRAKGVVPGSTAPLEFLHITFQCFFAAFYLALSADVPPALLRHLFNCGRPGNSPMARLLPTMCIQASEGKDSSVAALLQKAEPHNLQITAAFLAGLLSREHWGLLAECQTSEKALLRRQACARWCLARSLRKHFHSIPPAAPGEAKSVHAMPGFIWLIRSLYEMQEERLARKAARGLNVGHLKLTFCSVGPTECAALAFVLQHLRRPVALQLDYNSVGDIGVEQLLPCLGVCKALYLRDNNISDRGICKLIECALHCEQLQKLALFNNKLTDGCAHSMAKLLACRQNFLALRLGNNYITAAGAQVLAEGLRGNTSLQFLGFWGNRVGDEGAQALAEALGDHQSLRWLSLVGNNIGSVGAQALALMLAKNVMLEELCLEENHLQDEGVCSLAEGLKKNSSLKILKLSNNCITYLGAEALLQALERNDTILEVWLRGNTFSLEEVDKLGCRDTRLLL
# test: human NOD2 specific reporter gene assay (NF-κB induction)
# Format: cell-based
# assay setup: human NOD2 reporter gene assay; read-out: EC50 values, human NOD2 agonistic potency
# Experimental: Example 5: High-throughput screens in porcine blood: Curated compound collections were obtained from the Institute for Therapeutics Discovery & Development at the University of Minnesota. […] NF-κB translocation was assayed spectrophotometrically using an alkaline phosphatase-specific chromogen (present in HEK-detection medium as supplied by InvivoGen) at 620 nm using a SpectraMax M4 multimode microplate reader (Molecular Devices, Sunnyvale, Calif.). […]
pEC50: −log10 of the molar value.
readout: pEC50

CCCCCCc1nc2ccccc2n1-c1csc(C(N)=O)c1 : 6.18

1. CCCCCc1nc2ccccc2n1-c1csc(C(N)=O)c1
2. NC(=O)c1cc(-n2cnc3ccccc32)cs1
Task: Select the item with the higher value of pEC50 from the options 1 and 2 listed. API: response body contains the label of the selected item.
Result: 1
(1: 6.17, 2: 5.14)

----------
# subject of test: human NOD2 (Homo sapiens, UniProt Q9HC29)
# Construct: host or cells: HEK293
# test: human NOD2 specific reporter gene assay (NF-κB induction)
# Assay type: cell-based
# assay setup: human NOD2 specific reporter gene assay; arithmetic mean of quadruplicate samples; NA* indicates inactive under the tested conditions; read-out: hNOD2 Agonistic Activity (μM), EC50
readout: EC50 (µM)

a. CCCCc1nc2c(N)nccc2n1-c1csc(C(N)=O)c1 [Compound 19b]
b. CCCCCc1nc2ccccc2n1-c1csc(C(N)=O)c1
c. CCCc1nc2ccccc2n1-c1csc(C(N)=O)c1
d. Cc1nc2ccccc2n1-c1csc(C(N)=O)c1
Task: Let's sort these by EC50, smallest first. Go ahead? In plain terms: list the labels in the order you were asked to.
Result: b, a, c, d

I. CCCCc1nc2cnccc2n1-c1csc(C(N)=O)c1 [Compound 18b]
II. CCCCCCc1nc2ccccc2n1-c1csc(C(N)=O)c1
Task: Would you kindly point out which of I and II has the smaller EC50 figure? API: response body contains the label of the selected item.
Result: II
(II: 0.664 µM, I: 5.65 µM)

----------
# subject of test: human NOD2 (Homo sapiens)
# Construct: host or cells: HEK293
# test: human NOD2 specific reporter gene assay (NF-κB induction)
# Format: cell-based
# assay setup: human NOD2 reporter gene assay
readout: hNOD2-agonistic activity (in words)

Worked set:
NNC(=O)c1cc(-n2cnc3ccccc32)cs1 : inactive
NC(=O)c1coc(-n2cnc3ccccc32)n1 : devoid of activity
NC(=O)c1csc(-n2cnc3ccccc32)n1 : devoid of activity
CNC(=O)c1cc(-n2cnc3ccccc32)cs1 : inactive

Task: Lab request: please report hNOD2-agonistic activity (in words) under test system human NOD2 (Homo sapiens) for NC(=O)c1cccc(-n2cnc3ccccc32)c1 [Compound 3k, 3-(1H-Benzo[d]imidazol-1-yl)benzamide]
Result: devoid of activity

Task: Lab request: please report hNOD2-agonistic activity (in words) under test system human NOD2 (Homo sapiens) for NC(=O)c1cncc(-n2cnc3ccccc32)c1 [Compound 3l, 5-(1H-Benzo[d]imidazol-1-yl)nicotinamide]
Result: devoid of activity

Task: Lab request: please report hNOD2-agonistic activity (in words) under test system human NOD2 (Homo sapiens) for N=C(NO)c1cc(-n2cnc3ccccc32)cs1
Result: inactive
